- Test description: Induction of nitroxyl release in 7.5% DMSO and 92.5% phosphate buffer at pH 7.4 at 200 uM after 48 hrs by LC-MS analysis
- Type: physicochemical
- Setup conditions: pH 7.4, 48 h
Define the label as yes when Activity is strictly less than 60% and as no in all remaining cases.

[[record]]
molecule = "CC(C)N(C(=O)OC(C)(C)C)/[N+]([O-])=N/OCCS(C)(=O)=O"
class = "yes"

[[record]]
molecule = "[Na+].[Na+].[O-][N+]([O-])=NO [ANGELI'S SALT]"
class = "no"

[[record]]
molecule = "CC(C)N[N+]([O-])=N[O-].[Na+]"
class = "yes"

[[record]]
molecule = "CC(C)N/[N+]([O-])=N/OCCS(=O)(=O)NOCc1ccccc1"
class = "yes"

[[record]]
molecule = "CC(C)N/[N+]([O-])=N/OCS(C)(=O)=O"
class = "yes"

[[record]]
molecule = "CONS(=O)(=O)CCO/N=[N+](\\[O-])NC(C)C"
class = "yes"

